- PROTOCOL_TEXT: Retention time of the compound by LC-MS analysis
- Type: physicochemical
Rule: Retention_time under 0.8 min gives Criterion not met, otherwise Criterion met.

item_smiles=C[C@@]1(O)CC[C@H]2[C@@H](CC[C@@H]3[C@@H]2CC[C@]2(C)[C@@H](C(=O)Cn4cccn4)CC[C@@H]32)C1 assigned_label="Criterion met"
item_smiles=C[C@@]1(O)CC[C@H]2[C@H](CC[C@@H]3[C@@H]2CC[C@]2(C)[C@@H](C(=O)Cn4ccnc4)CC[C@@H]32)C1 assigned_label="Criterion not met"
item_smiles=C[C@@]1(O)CC[C@H]2[C@H](CC[C@@H]3[C@@H]2CC[C@]2(C)[C@@H](C(=O)Cn4ccnn4)CC[C@@H]32)C1 assigned_label="Criterion met"
item_smiles=C[C@@]1(O)CC[C@H]2[C@H](CC[C@@H]3[C@@H]2CC[C@]2(C)[C@@H](C(=O)Cn4ncc5ncccc54)CC[C@@H]32)C1 assigned_label="Criterion met"
item_smiles=C[C@@]1(O)CC[C@H]2[C@H](CC[C@@H]3[C@@H]2CC[C@]2(C)[C@@H](C(=O)Cn4cc5ccccc5n4)CC[C@@H]32)C1 assigned_label="Criterion met"
item_smiles=C[C@@]1(O)CC[C@H]2[C@H](CC[C@@H]3[C@@H]2CC[C@]2(C)[C@@H](C(=O)Cn4ncc5cccnc54)CC[C@@H]32)C1 assigned_label="Criterion met"
item_smiles=C[C@@]1(O)CC[C@H]2[C@H](CC[C@@H]3[C@@H]2CC[C@]2(C)[C@@H](C(=O)Cn4cc5c(n4)CCCC5)CC[C@@H]32)C1 assigned_label="Criterion met"
item_smiles=C[C@@]1(O)CC[C@H]2[C@@H](CC[C@@H]3[C@@H]2CC[C@]2(C)[C@@H](C(=O)Cn4cncn4)CC[C@@H]32)C1 assigned_label="Criterion met"
item_smiles=C[C@@]1(O)CC[C@H]2[C@H](CC[C@@H]3[C@@H]2CC[C@]2(C)[C@@H](C(=O)Cn4ncc5c4CCCC5)CC[C@@H]32)C1 assigned_label="Criterion met"
item_smiles=C[C@@]1(O)CC[C@H]2[C@H](CC[C@@H]3[C@@H]2CC[C@]2(C)[C@@H](C(=O)Cn4cc5ccncc5n4)CC[C@@H]32)C1 assigned_label="Criterion not met"
item_smiles=C[C@@]1(O)CC[C@H]2[C@@H](CC[C@@H]3[C@@H]2CC[C@]2(C)[C@@H](C(=O)Cn4ccnc4)CC[C@@H]32)C1 assigned_label="Criterion not met"

* * *

The entries below are paired with their reported EC50.
- TARGET_OR_SYSTEM: GABA-A receptor; agonist GABA site
- PROTOCOL_TEXT: Positive allosteric modulation of recombinant alpha4beta3delta GABAA receptor (unknown origin) expressed in CHO cells assessed as potentiation of GABA-induced channel current treated for 30 s prior to GABA stimulation for 2s by manual patch assay
- Type: cell-based, Homo sapiens
MEASURED_PROPERTY: EC50 (µM)

item_smiles=C[C@@]1(O)CC[C@H]2[C@H](CC[C@@H]3[C@@H]2CC[C@]2(C)[C@@H](C(=O)Cn4ncnn4)CC[C@@H]32)C1 target_or_system="GABA-A receptor; agonist GABA site" display_unit=µM result_operator== reported_measurement=0.345
item_smiles=C[C@@]1(O)CC[C@H]2[C@H](CC[C@@H]3[C@@H]2CC[C@]2(C)[C@@H](C(=O)Cn4cc5cnccc5n4)CC[C@@H]32)C1 target_or_system="GABA-A receptor; agonist GABA site" display_unit=µM result_operator== reported_measurement=1.35
item_smiles=C[C@@]1(O)CC[C@H]2[C@H](CC[C@@H]3[C@@H]2CC[C@]2(C)[C@@H](C(=O)Cn4ncc5cccnc54)CC[C@@H]32)C1 target_or_system="GABA-A receptor; agonist GABA site" display_unit=µM result_operator== reported_measurement=1.87
item_smiles=C[C@@]1(O)CC[C@H]2[C@@H](CC[C@@H]3[C@@H]2CC[C@]2(C)[C@@H](C(=O)Cn4cncn4)CC[C@@H]32)C1 target_or_system="GABA-A receptor; agonist GABA site" display_unit=µM result_operator== reported_measurement=0.781
item_smiles=C[C@@]1(O)CC[C@H]2[C@@H](CC[C@@H]3[C@@H]2CC[C@]2(C)[C@@H](C(=O)Cn4nccn4)CC[C@@H]32)C1 target_or_system="GABA-A receptor; agonist GABA site" display_unit=µM result_operator== reported_measurement=1.42
item_smiles=C[C@@]1(O)CC[C@H]2[C@H](CC[C@@H]3[C@@H]2CC[C@]2(C)[C@@H](C(=O)Cn4cncn4)CC[C@@H]32)C1 target_or_system="GABA-A receptor; agonist GABA site" display_unit=µM result_operator=> reported_measurement=3

* * *

- TARGET_OR_SYSTEM: GABA-A receptor; agonist GABA site
- PROTOCOL_TEXT: Positive allosteric modulation of recombinant alpha1beta2gamma2 GABAA receptor (unknown origin) expressed in LTK cells assessed as potentiation of GABA-induced channel current treated for 30 s prior to GABA stimulation for 2s by Q-patch assay
- Format: cell-based, Homo sapiens
MEASURED_PROPERTY: EC50 (µM)

item_smiles=C[C@@]1(O)CC[C@H]2[C@H](CC[C@@H]3[C@@H]2CC[C@]2(C)[C@@H](C(=O)Cn4cccn4)CC[C@@H]32)C1 result_operator== reported_measurement=0.945
item_smiles=C[C@@]1(O)CC[C@H]2[C@@H](CC[C@@H]3[C@@H]2CC[C@]2(C)[C@@H](C(=O)Cn4cccn4)CC[C@@H]32)C1 result_operator=> reported_measurement=3
item_smiles=CC(=O)[C@H]1CC[C@H]2[C@@H]3CC[C@H]4C[C@](C)(O)CC[C@@H]4[C@H]3CC[C@]12C result_operator== reported_measurement=0.355
item_smiles=C[C@@]1(O)CC[C@H]2[C@H](CC[C@@H]3[C@@H]2CC[C@]2(C)[C@@H](C(=O)Cn4cc5ccccc5n4)CC[C@@H]32)C1 result_operator== reported_measurement=1.9
item_smiles=C[C@@]1(O)CC[C@H]2[C@@H](CC[C@@H]3[C@@H]2CC[C@]2(C)[C@@H](C(=O)Cn4cncn4)CC[C@@H]32)C1 result_operator=> reported_measurement=3
item_smiles=C[C@@]1(O)CC[C@H]2[C@H](CC[C@@H]3[C@@H]2CC[C@]2(C)[C@@H](C(=O)Cn4ncc5c4CCCC5)CC[C@@H]32)C1 result_operator== reported_measurement=1.49
item_smiles=C[C@@]1(O)CC[C@H]2[C@H](CC[C@@H]3[C@@H]2CC[C@]2(C)[C@@H](C(=O)Cn4cc5ncccc5n4)CC[C@@H]32)C1 result_operator=> reported_measurement=3
item_smiles=C[C@@]1(O)CC[C@H]2[C@H](CC[C@@H]3[C@@H]2CC[C@]2(C)[C@@H](C(=O)Cn4cncn4)CC[C@@H]32)C1 result_operator=> reported_measurement=3
item_smiles=C[C@@]1(O)CC[C@H]2[C@@H](CC[C@@H]3[C@@H]2CC[C@]2(C)[C@@H](C(=O)Cn4nccn4)CC[C@@H]32)C1 result_operator== reported_measurement=0.592
item_smiles=C[C@@]1(O)CC[C@H]2[C@H](CC[C@@H]3[C@@H]2CC[C@]2(C)[C@@H](C(=O)Cn4ncc5ccccc54)CC[C@@H]32)C1 result_operator== reported_measurement=1.53
item_smiles=C[C@@]1(O)CC[C@H]2[C@H](CC[C@@H]3[C@@H]2CC[C@]2(C)[C@@H](C(=O)Cn4cc5cnccc5n4)CC[C@@H]32)C1 result_operator=> reported_measurement=3
item_smiles=C[C@@]1(O)CC[C@H]2[C@H](CC[C@@H]3[C@@H]2CC[C@]2(C)[C@@H](C(=O)Cn4ncc5ccncc54)CC[C@@H]32)C1 result_operator=> reported_measurement=3
item_smiles=C[C@@]1(O)CC[C@H]2[C@H](CC[C@@H]3[C@@H]2CC[C@]2(C)[C@@H](C(=O)Cn4ncnn4)CC[C@@H]32)C1 result_operator== reported_measurement=1.15
item_smiles=C[C@@]1(O)CC[C@H]2[C@H](CC[C@@H]3[C@@H]2CC[C@]2(C)[C@@H](C(=O)Cn4ccnn4)CC[C@@H]32)C1 result_operator== reported_measurement=1.84

* * *

- TARGET_OR_SYSTEM: GABA-A receptor; agonist GABA site
- PROTOCOL_TEXT: Positive allosteric modulation of recombinant alpha4beta3delta GABAA receptor (unknown origin) expressed in CHO cells assessed as potentiation of GABA-induced channel current treated for 30 s prior to GABA stimulation for 2s by manual patch assay
- Type: cell-based, Homo sapiens
MEASURED_PROPERTY: EC50 (µM)

molecule=C[C@@]1(O)CC[C@H]2[C@@H](CC[C@@H]3[C@@H]2CC[C@]2(C)[C@@H](C(=O)Cn4ncnn4)CC[C@@H]32)C1 result_operator== reported_measurement=0.292
molecule=C[C@@]1(O)CC[C@H]2[C@H](CC[C@@H]3[C@@H]2CC[C@]2(C)[C@@H](C(=O)Cn4cc5ccccc5n4)CC[C@@H]32)C1 result_operator== reported_measurement=2.52
molecule=C[C@@]1(O)CC[C@H]2[C@H](CC[C@@H]3[C@@H]2CC[C@]2(C)[C@@H](C(=O)Cn4ncc5ncccc54)CC[C@@H]32)C1 result_operator=> reported_measurement=3
molecule=C[C@@]1(O)CC[C@H]2[C@H](CC[C@@H]3[C@@H]2CC[C@]2(C)[C@@H](C(=O)Cn4cc5ccncc5n4)CC[C@@H]32)C1 result_operator== reported_measurement=0.178
molecule=CC(=O)[C@H]1CC[C@H]2[C@@H]3CC[C@H]4C[C@](C)(O)CC[C@@H]4[C@H]3CC[C@]12C result_operator== reported_measurement=0.553
molecule=C[C@@]1(O)CC[C@H]2[C@H](CC[C@@H]3[C@@H]2CC[C@]2(C)[C@@H](C(=O)Cn4ncc5c4CCCC5)CC[C@@H]32)C1 result_operator=> reported_measurement=3
molecule="CC(=O)[C@H]1CC[C@H]2[C@@H]3CC[C@H]4C[C@H](O)CC[C@]4(C)[C@H]3CC[C@]12C [BREXANOLONE]" result_operator== reported_measurement=0.0755
molecule=C[C@@]1(O)CC[C@H]2[C@@H](CC[C@@H]3[C@@H]2CC[C@]2(C)[C@@H](C(=O)Cn4ccnn4)CC[C@@H]32)C1 result_operator== reported_measurement=1.32
molecule=C[C@@]1(O)CC[C@H]2[C@H](CC[C@@H]3[C@@H]2CC[C@]2(C)[C@@H](C(=O)Cn4cnnn4)CC[C@@H]32)C1 result_operator== reported_measurement=0.394
molecule=C[C@@]1(O)CC[C@H]2[C@H](CC[C@@H]3[C@@H]2CC[C@]2(C)[C@@H](C(=O)Cn4nccn4)CC[C@@H]32)C1 result_operator== reported_measurement=0.24
molecule=C[C@@]1(O)CC[C@H]2[C@H](CC[C@@H]3[C@@H]2CC[C@]2(C)[C@@H](C(=O)Cn4ccnc4)CC[C@@H]32)C1 result_operator== reported_measurement=3.13
molecule=C[C@@]1(O)CC[C@H]2[C@H](CC[C@@H]3[C@@H]2CC[C@]2(C)[C@@H](C(=O)Cn4cc5cccnc5n4)CC[C@@H]32)C1 result_operator== reported_measurement=1.02
molecule=C[C@@]1(O)CC[C@H]2[C@@H](CC[C@@H]3[C@@H]2CC[C@]2(C)[C@@H](C(=O)Cn4cnnn4)CC[C@@H]32)C1 result_operator== reported_measurement=2.14
